The reported measurements were obtained from the supplement of paper PMC6555819.

- Tested on: THRa homodimer (NR concentration 90 nM)
- protocol.notes: PBM binding z-score (relative to random genomic background probes); higher = stronger binding; sequences stand for … in GC…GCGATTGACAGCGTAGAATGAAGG
measured.metric: PBM binding z-score
Quick one: just the number, no unit, thanks!

*Q* Provide measured PBM binding z-score value, entry: "TGAATGAGGTTATAAGAACAGGGAACGTTGCAAA"
*A* 0.00377

====

- Test system: FXR:RXRa (NR concentration 270 nM, RXRa partner concentration 90 nM)
- protocol.notes: PBM binding z-score (relative to random genomic background probes); higher = stronger binding; sequences stand for … in GC…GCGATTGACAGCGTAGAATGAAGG
Listed here are sequences together with their documented PBM binding z-score.
Quick one: just the number, no unit, thanks!

In the examples that follow, each entry is paired with its recorded PBM binding z-score.
TCTTGTAGATCAATAGAGGTTAACAAAGTGCGCT 0.932
CAGACAGGGTCAGCTAGGCCAGAGTAGGGACGGC 4.38
TTACCATGGTGAGCTGAGGTCGTTGATCCAACTC 0.322
ATCTCTAGGTAAGACTCAGTCCAGTGAAGAACGC 0.392
TCTGCGAGGTCAACGATGGTCAGCTAATCTGCTA 6.96

*Q* Provide measured PBM binding z-score value, entry: "CCGTCTGGGGCATAAGGTTACCATAAGCCAGCCC"
*A* 0.562

*Q* Provide measured PBM binding z-score value, entry: "TCGAGTAGGTTAGTCGGGGGATTCAGCCAACATA"
*A* 0.552

*Q* Provide measured PBM binding z-score value, entry: "AGAATGAGGTTACCAAAGATCGGGGAAACGCTTG"
*A* 1.75

*Q* Provide measured PBM binding z-score value, entry: "CAAACTAGGTCACAGCGGTCAAAGTCCGTGCGTA"
*A* 5.25

*Q* Provide measured PBM binding z-score value, entry: "TAGGCTAGGTCATTGGGCCAGTATAGTACGCATC"
*A* 4

*Q* Provide measured PBM binding z-score value, entry: "TCTATTAGTTGATTAAGGCAACCGAAACAGCGGA"
*A* 0.785
